// data source = patent US11420973B2

Molecular target: human TLR7 (Homo sapiens (Human), UniProt Q9NYK1)
Sequence (Q9NYK1 27-1049): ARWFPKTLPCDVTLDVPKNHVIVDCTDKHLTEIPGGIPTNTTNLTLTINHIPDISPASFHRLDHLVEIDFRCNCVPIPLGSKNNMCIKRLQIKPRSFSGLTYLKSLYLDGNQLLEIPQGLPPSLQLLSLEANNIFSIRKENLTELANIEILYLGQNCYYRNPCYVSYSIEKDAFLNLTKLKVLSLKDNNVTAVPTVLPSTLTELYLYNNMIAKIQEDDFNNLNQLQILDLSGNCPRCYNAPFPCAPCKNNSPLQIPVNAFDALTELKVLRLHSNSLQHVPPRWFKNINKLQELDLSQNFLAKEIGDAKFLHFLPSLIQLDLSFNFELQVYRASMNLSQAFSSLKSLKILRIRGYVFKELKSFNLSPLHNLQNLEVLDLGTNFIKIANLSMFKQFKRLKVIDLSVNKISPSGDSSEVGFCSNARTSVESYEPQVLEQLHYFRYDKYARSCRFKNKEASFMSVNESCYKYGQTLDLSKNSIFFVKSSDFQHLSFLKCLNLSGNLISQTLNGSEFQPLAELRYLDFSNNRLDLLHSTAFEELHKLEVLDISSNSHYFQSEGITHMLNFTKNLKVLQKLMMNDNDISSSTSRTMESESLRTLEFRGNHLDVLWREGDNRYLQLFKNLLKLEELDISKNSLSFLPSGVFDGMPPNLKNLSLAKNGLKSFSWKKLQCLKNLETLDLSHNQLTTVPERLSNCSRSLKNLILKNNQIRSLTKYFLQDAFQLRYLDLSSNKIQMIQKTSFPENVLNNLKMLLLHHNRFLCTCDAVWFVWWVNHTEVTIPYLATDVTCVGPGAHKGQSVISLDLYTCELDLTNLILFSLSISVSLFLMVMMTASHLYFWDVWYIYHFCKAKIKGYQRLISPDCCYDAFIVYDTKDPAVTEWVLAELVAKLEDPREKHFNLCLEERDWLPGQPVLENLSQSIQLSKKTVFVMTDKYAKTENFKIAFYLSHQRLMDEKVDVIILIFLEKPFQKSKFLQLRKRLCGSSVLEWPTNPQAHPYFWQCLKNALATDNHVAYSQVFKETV
Assay: TLR7 inhibition reporter assay (HEK-Blue SEAP reporter, gardiquimod stimulation)
Type: cell-based
Conditions: HEK-Blue cells overexpressing human TLR7, gardiquimod 7.5 μM
Structures can show the parent of a compound that is named as a salt.
Each item that follows carries a reported log10(IC50).
Assay metric: log10(IC50) (log10 of the value in nM)

> print(dat)
                                   molecule  reading
1  CCc1c(-c2ccc(OC)c(OC)c2)[nH]c2ccc(C(=O)N3CCN(C4CCN(C)CC4)CC3)cc12     2.14
2  Cc1cc(-c2[nH]c3ccc(C(C)(C)C(=O)N4CCC(OC5CCNCC5)CC4)cc3c2C(C)C)ccn1     2.11
3  Cc1cc(-c2[nH]c3ccc(C(C)C(=O)N[C@H]4CCNC4)cc3c2C(C)C)ccn1 (some centres unmarked) [Example 189]     2.43
4  CC(C)c1c(-c2ccnc3[nH]ncc23)[nH]c2ccc(C(=O)N3CC4CNCC4C3)cc12 (centres unmarked) [Example 121, HCl]     3.20
5  CCc1c(-c2ccc(OC)c(OC)c2)[nH]c2ccc(C(=O)NC3CCCCCC3)cc12     3.36
6  CCc1c(-c2ccc(OC)c(OC)c2)[nH]c2ccc(C(=O)N(C)CCCN(C)C)cc12     2.19
7  CCc1c(-c2ccc(OC)c(OC)c2)[nH]c2ccc(C(=O)NCCN3CCCC3)cc12     2.16
8  CCc1c(-c2ccc(OC)c(OC)c2)[nH]c2ccc(C(=O)N3CCN(c4ncccn4)CC3)cc12     2.76

====

Each item that follows carries a reported IC50.
Target: human TLR9 (Homo sapiens (Human), UniProt Q9NR96)
Sequence (Q9NR96 26-1032): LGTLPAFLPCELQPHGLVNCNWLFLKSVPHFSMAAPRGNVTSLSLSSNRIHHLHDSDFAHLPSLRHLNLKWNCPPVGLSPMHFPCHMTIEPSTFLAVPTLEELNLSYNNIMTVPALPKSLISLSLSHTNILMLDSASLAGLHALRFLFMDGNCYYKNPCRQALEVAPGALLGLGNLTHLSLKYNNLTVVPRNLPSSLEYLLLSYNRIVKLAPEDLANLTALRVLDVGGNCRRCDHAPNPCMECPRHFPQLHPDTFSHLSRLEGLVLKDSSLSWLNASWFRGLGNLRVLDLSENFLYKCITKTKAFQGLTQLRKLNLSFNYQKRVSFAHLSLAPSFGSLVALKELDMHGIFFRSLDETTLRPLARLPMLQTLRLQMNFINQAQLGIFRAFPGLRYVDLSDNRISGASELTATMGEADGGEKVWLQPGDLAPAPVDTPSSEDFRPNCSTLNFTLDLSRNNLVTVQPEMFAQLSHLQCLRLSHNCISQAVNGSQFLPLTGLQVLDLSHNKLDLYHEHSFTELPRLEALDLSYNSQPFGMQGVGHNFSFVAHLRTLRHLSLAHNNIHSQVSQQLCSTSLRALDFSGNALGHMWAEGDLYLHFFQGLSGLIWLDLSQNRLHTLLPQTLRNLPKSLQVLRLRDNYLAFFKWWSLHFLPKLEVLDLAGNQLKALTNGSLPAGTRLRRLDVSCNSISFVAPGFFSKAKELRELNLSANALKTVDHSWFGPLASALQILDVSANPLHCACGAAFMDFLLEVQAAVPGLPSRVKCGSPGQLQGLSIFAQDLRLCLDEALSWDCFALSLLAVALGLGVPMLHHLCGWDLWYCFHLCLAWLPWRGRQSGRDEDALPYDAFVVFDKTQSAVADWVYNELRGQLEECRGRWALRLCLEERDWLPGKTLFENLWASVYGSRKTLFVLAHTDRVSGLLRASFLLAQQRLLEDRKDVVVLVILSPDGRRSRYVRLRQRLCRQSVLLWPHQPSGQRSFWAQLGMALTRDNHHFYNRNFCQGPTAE
Assay: TLR9 inhibition reporter assay (HEK-Blue SEAP reporter, ODN2006 stimulation);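 further: SEAP reporter under IFN-β minimal promoter with five NF-κB and AP-1 sites, 22 h incubation, compounds 0.05 nM–50 µM, inhibition relative to agonist plus DMSO versus known inhibitor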
Details: read-out: TLR9 IC50; HEK-Blue cells overexpressing human TLR9, ODN2006 5 nM, SEAP reporter
Assay metric: IC50

Compound	Reading
Cc1cc(-c2[nH]c3ccc(C(=O)N(C)CCO)cc3c2C(C)C)cc(C)n1	20800 nM
CCc1c(-c2ccc(OC)c(OC)c2)[nH]c2ccc(C(=O)N3CCN(c4ncccn4)CC3)cc12	> 50000 nM
Cc1cc(-c2[nH]c3ccc(C(C)(C)C(=O)N4CC5CNC5C4)cc3c2C(C)C)ccn1 (stereo not shown)	11900 nM
CCc1c(-c2ccc(OC)c(OC)c2)[nH]c2ccc(C(=O)N3CCN(C(=O)c4ccco4)CC3)cc12	> 50000 nM
CCc1c(-c2ccc(OC)c(OC)c2)[nH]c2ccc(C(=O)N3CC[C@@H](N(C)C)C3)cc12	6180 nM
CCc1c(-c2ccc(OC)c(OC)c2)[nH]c2ccc(C(=O)N3CCCC(C(=O)N(CC)CC)C3)cc12 (stereo not shown)	16800 nM
Cc1cc(-c2[nH]c3ccc(C(C)C(=O)N[C@H]4CCNC4)cc3c2C(C)C)ccn1 (stereo partly shown) [Example 190]	957 nM
CCc1c(-c2ccc(OC)c(OC)c2)[nH]c2ccc(C(=O)NC3CCC(N(C)C)CC3)cc12 (stereo not shown)	1390 nM
CCc1c(-c2ccc(OC)c(OC)c2)[nH]c2ccc(C(=O)NCCC(N)=O)cc12	> 50000 nM
CCc1c(-c2ccc(OC)c(OC)c2)[nH]c2ccc(C(=O)NCc3ccco3)cc12	> 50000 nM
Cc1cc(-c2[nH]c3ccc(C(=O)N4CCC(N(C)C)CC4)cc3c2C(C)C)cc(C)n1	373 nM
CC(C)c1c(-c2ccnc3[nH]ncc23)[nH]c2ccc(CCC(=O)N3CCOCC3)cc12	> 50000 nM
Cc1cc(-c2[nH]c3ccc(C(=O)N4CCCN(C)CC4)cc3c2C(C)C)ccn1	3630 nM
Cc1cc(-c2[nH]c3ccc(C(=O)N(C)Cc4ccccc4)cc3c2C(C)C)cc(C)n1	1830 nM
COc1cc(-c2[nH]c3ccc(C(=O)NC4CCN(C(C)C)CC4)cc3c2C(C)C)cn2ncnc12	916 nM
CNC(=O)c1ccc2[nH]c(-c3cc(C)nc(C)c3)c(C(C)C)c2c1	> 50000 nM
Cc1cc(-c2[nH]c3ccc(C(=O)N(C)CCc4ccccc4)cc3c2C(C)C)cc(C)n1	5060 nM
CCc1c(-c2ccc(OC)c(OC)c2)[nH]c2ccc(C(=O)NCc3ccc(N4CCNCC4)cc3)cc12	931 nM
CCc1c(-c2ccc(OC)c(OC)c2)[nH]c2ccc(C(=O)NC[C@@H](F)C(C)(C)O)cc12	13800 nM
CCN(CC)C(=O)C1CCCN(CC(=O)N2CC3CN(C(=O)c4ccc5[nH]c(-c6ccc(OC)c(OC)c6)c(C(C)C)c5c4)CC3C2)C1 (single isomer, unassigned) [Example 11]	36000 nM
Cc1cc(-c2[nH]c3ccc(C(C)(C)C(=O)NC4CCN(C5CCNC5)CC4)cc3c2C(C)C)ccn1 (stereo not shown)	4500 nM
CCc1c(-c2ccc(OC)c(OC)c2)[nH]c2ccc(C(=O)N(C)Cc3csc(C4CCNCC4)n3)cc12	885 nM
CCN(CCN(C)C)C(=O)c1ccc2[nH]c(-c3cc(C)nc(C)c3)c(C(C)C)c2c1	594 nM
COc1ccc(-c2[nH]c3ccc(CCC(=O)N4CC5CNCC5C4)cc3c2C(C)C)cc1OC (stereo not shown)	840 nM
Cc1cc(-c2[nH]c3ccc(C(C)C(=O)N[C@@H]4CCCC[C@H]4N)cc3c2C(C)C)ccn1 (stereo partly shown) [Example 216]	1060 nM
Cc1cc(-c2[nH]c3ccc(C(C)C(=O)N4CCCC(CN)C4)cc3c2C(C)C)ccn1 (stereo not shown)	2460 nM
Cc1cc(-c2[nH]c3ccc(C(=O)N4CCCN(C)CC4)cc3c2CC(F)F)cc(C)n1	1120 nM
Cc1cc(-c2[nH]c3ccc(C(C)(C)C(=O)NCCN)cc3c2C(C)C)ccn1	1090 nM
Cc1cc(-c2[nH]c3ccc(C(C)(C)C(=O)N4CC5CC(C4)C5N)cc3c2C(C)C)ccn1 (stereo not shown)	2640 nM
Cc1cc(-c2[nH]c3ccc(C(=O)NCCCN(C)C)cc3c2C(C)C)cc(C)n1	516 nM
CCc1c(-c2ccc(OC)c(OC)c2)[nH]c2ccc(C(=O)N3CCC(N4CCN(C)CC4)CC3)cc12	3710 nM

====

Each item that follows carries a reported IC50.
Molecular target: UniProtKB Q9NR97
Sequence (Q9NR97 27-1041): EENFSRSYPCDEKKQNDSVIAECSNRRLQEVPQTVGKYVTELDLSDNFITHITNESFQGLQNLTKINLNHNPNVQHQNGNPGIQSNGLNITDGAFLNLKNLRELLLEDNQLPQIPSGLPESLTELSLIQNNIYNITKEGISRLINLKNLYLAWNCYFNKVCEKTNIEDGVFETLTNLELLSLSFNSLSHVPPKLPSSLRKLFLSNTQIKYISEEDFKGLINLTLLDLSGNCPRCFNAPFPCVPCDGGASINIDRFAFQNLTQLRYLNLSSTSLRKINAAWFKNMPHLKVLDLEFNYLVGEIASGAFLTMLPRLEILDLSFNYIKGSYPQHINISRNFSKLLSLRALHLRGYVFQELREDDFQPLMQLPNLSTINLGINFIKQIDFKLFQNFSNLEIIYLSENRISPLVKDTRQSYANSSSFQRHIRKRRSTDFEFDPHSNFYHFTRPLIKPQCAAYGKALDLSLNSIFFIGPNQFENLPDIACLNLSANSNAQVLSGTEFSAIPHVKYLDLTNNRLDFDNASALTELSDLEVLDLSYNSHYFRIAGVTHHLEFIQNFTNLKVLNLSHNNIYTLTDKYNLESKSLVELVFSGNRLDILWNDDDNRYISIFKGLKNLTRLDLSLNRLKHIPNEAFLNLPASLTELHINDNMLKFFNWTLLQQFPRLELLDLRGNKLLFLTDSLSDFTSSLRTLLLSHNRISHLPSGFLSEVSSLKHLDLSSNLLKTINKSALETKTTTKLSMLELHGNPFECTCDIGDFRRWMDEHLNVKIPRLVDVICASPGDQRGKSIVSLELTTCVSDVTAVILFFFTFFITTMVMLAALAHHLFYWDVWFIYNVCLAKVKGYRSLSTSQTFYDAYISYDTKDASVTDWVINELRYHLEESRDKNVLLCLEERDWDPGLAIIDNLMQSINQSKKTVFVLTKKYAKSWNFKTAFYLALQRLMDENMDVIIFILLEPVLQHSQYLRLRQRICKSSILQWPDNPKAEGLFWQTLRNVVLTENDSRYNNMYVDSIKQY
Assay: TLR8 inhibition reporter assay (HEK-Blue SEAP reporter, R848 stimulation);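 further: SEAP driven by IFN-β minimal promoter with NF-κB and AP-1 sites, 22 h incubation, compounds 0.05 nM–50 µM, inhibition scaled between agonist plus DMSO and reference inhibitor wells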
Details: read-out: TLR8 IC50; HEK-Blue cells overexpressing human TLR8, R848 15.9 μM, SEAP reporter

Compound	System name	Measurement unit	IC50
Cc1cc(-c2[nH]c3ccc(C(C)C(=O)N4CCCC(CN)C4)cc3c2C(C)C)ccn1 (stereo not shown)	UniProtKB Q9NR97	nM	341
Cc1cc(-c2[nH]c3ccc(C(C)(C)C(=O)N4CCCC5(CNC5)C4)cc3c2C(C)C)ccn1	UniProtKB Q9NR97	nM	306
Cc1cc(-c2[nH]c3ccc(C(C)C(=O)NC4CCCC(N)C4)cc3c2C(C)C)ccn1 (stereo not shown) [Example 219]	UniProtKB Q9NR97	nM	182
CCc1c(-c2ccc(OC)c(OC)c2)[nH]c2ccc(C(=O)N3CCN(C(=O)c4ccco4)CC3)cc12	UniProtKB Q9NR97	nM	115
CCc1c(-c2ccc(OC)c(OC)c2)[nH]c2ccc(C(=O)N3CCC(N4CCCCC4)CC3)cc12	UniProtKB Q9NR97	nM	13
Cc1cc(-c2[nH]c3ccc(C(C)(C)C(=O)N4CC5(CCNCC5)C4)cc3c2C(C)C)ccn1	UniProtKB Q9NR97	nM	1130
Cc1cc(-c2[nH]c3ccc(C(C)(C)C(=O)N4CCC5(CCNC5)C4)cc3c2C(C)C)ccn1 (stereo not shown)	UniProtKB Q9NR97	nM	859
CNC(=O)CN1CC2CN(C(=O)c3ccc4[nH]c(-c5ccc(OC)c(OC)c5)c(C(C)C)c4c3)CC2C1 (stereo not shown)	UniProtKB Q9NR97	nM	267
Cc1cc(-c2[nH]c3ccc(C(=O)N(C)Cc4cccc(N)c4)cc3c2C(C)C)cc(C)n1	UniProtKB Q9NR97	nM	192
Cc1cc(-c2[nH]c3ccc(C(C)C(=O)N(C)C4CCCNC4)cc3c2C(C)C)ccn1 (stereo not shown) [Example 210]	UniProtKB Q9NR97	nM	210
CCc1c(-c2ccc(OC)c(OC)c2)[nH]c2ccc(C(=O)NCCCN3CCCCC3)cc12	UniProtKB Q9NR97	nM	8.1
Cc1cc(-c2[nH]c3ccc(C(=O)N4CCNCC4)cc3c2C(C)C)cc(C)n1	UniProtKB Q9NR97	nM	1.5
Cc1cc(-c2[nH]c3ccc(C(C)C(=O)N[C@@H]4CCCNC4)cc3c2C(C)C)ccn1 (stereo partly shown) [Example 196]	UniProtKB Q9NR97	nM	88
Cc1cc(-c2[nH]c3ccc(C(C)(C)C(=O)N4CCCCC4C4CCNCC4)cc3c2C(C)C)ccn1 (stereo not shown)	UniProtKB Q9NR97	nM	81
Cc1cc(-c2[nH]c3ccc(C(C)C(=O)NCC4CCCNC4)cc3c2C(C)C)ccn1 (stereo not shown)	UniProtKB Q9NR97	nM	241
Cc1cc(-c2[nH]c3ccc(C(C)(C)C(=O)NCCC4CCCNC4)cc3c2C(C)C)ccn1 (stereo not shown)	UniProtKB Q9NR97	nM	602
CCc1c(-c2ccc(OC)c(OC)c2)[nH]c2ccc(C(=O)NCCO)cc12	UniProtKB Q9NR97	nM	274
COc1ccc(-c2[nH]c3ccc(C(=O)N4CC5CN(C)CC5C4)cc3c2C(C)C)cc1OC (stereo not shown)	UniProtKB Q9NR97	nM	61
CNC(=O)CN1CC2CN(C(=O)c3ccc4[nH]c(-c5ccnc(C)c5)c(C(C)C)c4c3)CC2C1 (stereo not shown)	UniProtKB Q9NR97	nM	165
Cc1cc(-c2[nH]c3ccc(C(C)C(=O)NCC(C)(C)O)cc3c2C(C)C)ccn1 (stereo not shown)	UniProtKB Q9NR97	nM	979
Cc1cc(-c2[nH]c3ccc(C(C)C(=O)N[C@H]4CCNC4)cc3c2C(C)C)ccn1 (stereo partly shown) [Example 189]	UniProtKB Q9NR97	nM	246
Cc1cc(-c2[nH]c3ccc(C(=O)N4CC5CN(CC(=O)N(C)C)CC5C4)cc3c2C(C)C)ccn1 (stereo not shown)	UniProtKB Q9NR97	nM	20
Cc1cc(-c2[nH]c3ccc(C(C)(C)C(=O)N4CC5CC4CN5)cc3c2C(C)C)ccn1 (stereo not shown)	UniProtKB Q9NR97	nM	211
COc1ccc(-c2[nH]c3ccc(C(=O)N4C[C@@H]5C[C@H]4CN5)cc3c2C(C)C)cc1OC	UniProtKB Q9NR97	nM	43
CCN(CC)C(=O)C1CCCN(CC(=O)N2CC3CN(C(=O)c4ccc5[nH]c(-c6ccc(OC)c(OC)c6)c(C(C)C)c5c4)CC3C2)C1 (single isomer, unassigned) [Example 10]	UniProtKB Q9NR97	nM	114
CNCC(=O)N1CC2CN(C(=O)c3ccc4[nH]c(-c5ccc(OC)c(OC)c5)c(C(C)C)c4c3)CC2C1 (stereo not shown)	UniProtKB Q9NR97	nM	194
CCc1c(-c2ccc(OC)c(OC)c2)[nH]c2ccc(C(=O)N(CC)CCN(C)C)cc12	UniProtKB Q9NR97	nM	4
CCc1c(-c2ccc(OC)c(OC)c2)[nH]c2ccc(C(=O)N(C)CCc3ccccn3)cc12	UniProtKB Q9NR97	nM	581
CC(C)c1c(-c2ccnc3[nH]ncc23)[nH]c2ccc(CCC(=O)N3CCOCC3)cc12	UniProtKB Q9NR97	nM	411
CCc1c(-c2ccc(OC)c(OC)c2)[nH]c2ccc(C(=O)NCC(C)(C)CO)cc12	UniProtKB Q9NR97	nM	408
CCN(CCN(C)C)C(=O)c1ccc2[nH]c(-c3cc(C)nc(C)c3)c(CC(F)F)c2c1	UniProtKB Q9NR97	nM	23
